test system: RXF 393 renal; test: NCI-60 one-dose screen, 48 h; conditions: 10 µM unless noted
About 83,000 compounds went through this panel and 20% of them were active in at least one assay; those are over-represented in the sample as a whole. Active and inactive are the calls of the source. How the source made its calls: active means growth percent below 10; inactive means the rest.
Reply using exactly one outcome from TRUE for active, FALSE for inactive

[[record]]
molecule_smiles = "CCOC(=O)C(C#N)=C1CCN(C)CC1"
answer_label = "FALSE"

[[record]]
molecule_smiles = "CCCCCCCCNC(=O)C(C)C"
answer_label = "FALSE"

[[record]]
molecule_smiles = "CCCC(=O)c1cccs1"
answer_label = "FALSE"

[[record]]
molecule_smiles = "CCN(CC)c1ccc2nc3ccc(N=Nc4ccc(N(C)C)cc4)cc3[n+](-c3ccccc3)c2c1"
answer_label = "TRUE"

[[record]]
molecule_smiles = "c1ccc(-c2ccc3ccccc3c2)cc1"
answer_label = "FALSE"


Challenge: For this compound, state the assay outcome: "C#CCSc1nnnn1-c1ccccc1"
Response given: FALSE

Challenge: And for "CC(=O)N(CCCCCCN(C(C)=O)C(C)=O)C(C)=O" ?
Response given: FALSE
